The reader will find reported inhibition at 0.1 µM values listed item by item below.
biological target: TXA2 receptors of human platelets (Homo sapiens); construct: Human platelets incubate in the presence of a single concentration; endogenous in cells; host or cells: human platelets; test: displacement of radioligand [^125 I]PTA-OH specifically bound to the TXA2 receptors of human platelets; format: binding; settings: 0.5 h, 1E-7 M competing agent, 30 minutes at 37° C, read-out: % displacement, Concentration 1E-7 M
Number first, unit second: that is the form wanted.

- MOLECULE: "CC(C)(CC(=O)O)Cc1nc2ccccc2n1Cc1ccc(O)cc1"
  RESULT: "50%"
- MOLECULE: "O=C(O)CC1(Cc2nc3cc(F)ccc3n2Cc2ccc(Cl)cc2)CC1"
  RESULT: "80%"
- MOLECULE: "CC(C)(CC(=O)O)Cc1nc2ccccc2n1Cc1ccccc1"
  RESULT: "13%"
- MOLECULE: "CC(C)(CC(=O)O)Cc1nc2cc(Cl)ccc2n1Cc1ccc2ccccc2c1"
  RESULT: "77%"
- MOLECULE: "CC(C)(CC(=O)O)Cc1nc2cc(F)ccc2n1Cc1ccc(Br)cc1"
  RESULT: "95%"
- MOLECULE: "CC(C)(CC(N)=O)Cc1nc2ccccc2n1Cc1ccc(Cl)cc1"
  RESULT: "7%"

inhibition at 0.1 µM reported for this compound CC(C)(CC(=O)O)Cc1nc2ccccc2n1Cc1ccc(Br)cc1F : 88%

inhibition at 0.1 µM reported for this compound CSc1ccc(Cn2c(CC(C)(C)CC(=O)O)nc3cc(Cl)ccc32)cc1 : 87%

inhibition at 0.1 µM reported for this compound CC(C)(CC(=O)O)Cc1nc2cc(Cl)ccc2n1Cc1ccc(Cl)c(Cl)c1 : 71%

---

The reader will find reported inhibition at 0.1 µM values listed item by item below.
molecular target: TXA2 receptors of human platelets (Homo sapiens); construct: Human platelets incubate in the presence of a single concentration; endogenous in cells; host or cells: human platelets; assay: displacement of radioligand [^125 I]PTA-OH specifically bound to the TXA2 receptors of human platelets; assay type: binding; conditions: 0.5 h, 1E-7 M competing agent, 30 minutes at 37° C, read-out: % displacement, Concentration 1E-7 M
The response must be a number in % with no trailing unit.

inhibition at 0.1 µM reported for this compound COc1ccc(Cn2c(CC(C)(C)CC(=O)O)nc3cc(F)ccc32)cc1 : 79

inhibition at 0.1 µM reported for this compound CC(C)(CC(=O)O)Cc1nc2ccccc2n1Cc1ccc(Br)cc1 : 86

inhibition at 0.1 µM reported for this compound CC(C)(CCC(=O)O)Cc1nc2cc(F)ccc2n1Cc1ccc(Cl)cc1 : 56

inhibition at 0.1 µM reported for this compound CC(C)(CC(=O)O)Cc1nc2cc(Cl)ccc2n1Cc1ccc(Cl)cc1 : 74

inhibition at 0.1 µM reported for this compound COc1ccc2c(c1)nc(CC(C)(C)CC(=O)O)n2Cc1ccc(Cl)cc1 : 44

inhibition at 0.1 µM reported for this compound CC(C)(CC(=O)O)Cc1nc2ccccc2n1Cc1ccc(Cl)cc1 : 85

inhibition at 0.1 µM reported for this compound O=C(O)CCCSc1nc2ccccc2n1Cc1ccc(Cl)cc1Cl : 34

inhibition at 0.1 µM reported for this compound CC(C)(CC(=O)O)Cc1nc2ccccc2n1Cc1cccc(C(F)(F)F)c1 : 49

inhibition at 0.1 µM reported for this compound CC(C)(CC(=O)O)Cc1nc2ccccc2n1Cc1ccc([N+](=O)[O-])cc1 : 83

inhibition at 0.1 µM reported for this compound CC(C)(CC(=O)O)Cc1nc2cc(F)ccc2n1Cc1ccc(S(C)(=O)=O)cc1 : 100

inhibition at 0.1 µM reported for this compound CC(CC(=O)O)Cc1nc2ccccc2n1Cc1ccc(Cl)cc1 (stereo not drawn) : 10

inhibition at 0.1 µM reported for this compound CCC(C)(CC(=O)O)Cc1nc2ccccc2n1Cc1ccc(Cl)cc1 (stereo not drawn) : 57

inhibition at 0.1 µM reported for this compound CCC(CC)(CC(=O)O)Cc1nc2ccccc2n1Cc1ccc(Cl)cc1 : 35

inhibition at 0.1 µM reported for this compound CC(C)(CC(=O)O)Cc1nc2cc(Cl)cnc2n1Cc1ccc(Cl)cc1 : 97

inhibition at 0.1 µM reported for this compound CC(C)(CC(=O)O)Cc1nc2cc(Cl)ccc2n1Cc1ccc(Br)cc1F : 74

inhibition at 0.1 µM reported for this compound CC(C)(CC(=O)O)Cc1nc2cc(F)ccc2n1Cc1ccc(Cl)cc1 : 94

inhibition at 0.1 µM reported for this compound CC(C)(CC(=O)O)Cc1nc2cc(Br)ccc2n1Cc1ccc(Cl)cc1 : 38

inhibition at 0.1 µM reported for this compound O=C(O)[C@@H]1CC=CC[C@@H]1c1nc2cc(F)ccc2n1Cc1ccc(Cl)cc1 (relative stereo) : 15

---

target: TXA2 receptors of human platelets (Homo sapiens, UniProt P21731); construct: Human platelets incubate in the presence of a single concentration; endogenous in cells; host or cells: human platelets; experiment: displacement of radioligand [^125 I]PTA-OH specifically bound to the TXA2 receptors of human platelets; assay type: binding; conditions: 0.5 h, 1E-5 M competing agent, 30 minutes at 37° C, read-out: % displacement, Concentration 1E-5 M
Sequence (P21731 whole entry): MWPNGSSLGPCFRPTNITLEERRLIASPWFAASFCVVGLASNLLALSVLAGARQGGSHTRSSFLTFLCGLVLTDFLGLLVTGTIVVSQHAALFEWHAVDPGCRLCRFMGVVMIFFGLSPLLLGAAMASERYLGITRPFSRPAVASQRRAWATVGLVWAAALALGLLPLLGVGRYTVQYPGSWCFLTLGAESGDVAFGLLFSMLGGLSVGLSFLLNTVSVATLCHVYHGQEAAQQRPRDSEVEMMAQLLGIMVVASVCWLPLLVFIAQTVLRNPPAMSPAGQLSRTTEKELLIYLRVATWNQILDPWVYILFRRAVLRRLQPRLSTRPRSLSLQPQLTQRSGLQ
QUANTITY KIND: inhibition at 10 µM
Number first, unit second: that is the form wanted.

- COMPOUND: "CC(C)(CC(=O)O)Cc1nc2ccccc2n1Cc1ccc(Br)cc1"
  ASSAY SYSTEM: "TXA2 receptors of human platelets (Homo sapiens, UniProt P21731)"
  inhibition at 10 µM: "96%"
- COMPOUND: "CC(C)(CCC(=O)O)Cc1nc2cc(F)ccc2n1Cc1ccc(Cl)cc1"
  ASSAY SYSTEM: "TXA2 receptors of human platelets (Homo sapiens, UniProt P21731)"
  inhibition at 10 µM: "87%"
- COMPOUND: "CC(C)(CC(=O)O)Cc1nc2ccccc2n1Cc1cccc(C(F)(F)F)c1"
  ASSAY SYSTEM: "TXA2 receptors of human platelets (Homo sapiens, UniProt P21731)"
  inhibition at 10 µM: "100%"
- COMPOUND: "CC(C)(CC(=O)O)Cc1nc2ccccc2n1Cc1ccc(F)cc1"
  ASSAY SYSTEM: "TXA2 receptors of human platelets (Homo sapiens, UniProt P21731)"
  inhibition at 10 µM: "100%"
- COMPOUND: "O=C(O)CC1(Cc2nc3cc(F)ccc3n2Cc2ccc(Cl)cc2)CCCC1"
  ASSAY SYSTEM: "TXA2 receptors of human platelets (Homo sapiens, UniProt P21731)"
  inhibition at 10 µM: "100%"

inhibition at 10 µM reported for this compound CC(C)(CC(=O)O)Cc1nc2cc(Cl)cnc2n1Cc1ccc(Cl)cc1 : 100%

inhibition at 10 µM reported for this compound O=C(O)[C@@H]1CC=CC[C@@H]1c1nc2cc(F)ccc2n1Cc1ccc(Cl)cc1 (relative stereo) : 96%

inhibition at 10 µM reported for this compound Cc1ccc(Cn2c(CC(C)(C)CC(=O)O)nc3ccccc32)cc1 : 100%

inhibition at 10 µM reported for this compound CC(C)(CC(=O)O)Cc1nc2ccccc2n1Cc1ccccc1 : 95%

---

The reader will find reported inhibition at 0.1 µM values listed item by item below.
biological target: TXA2 receptors of human platelets (Homo sapiens, UniProt P21731); construct: Human platelets incubate in the presence of a single concentration; endogenous in cells; host or cells: human platelets; assay: displacement of radioligand [^125 I]PTA-OH specifically bound to the TXA2 receptors of human platelets; type: binding; conditions: 0.5 h, 1E-7 M competing agent, 30 minutes at 37° C, read-out: % displacement, Concentration 1E-7 M
The response must be a number in % with no trailing unit.

- MOLECULE: "Cc1ccc(Cn2c(CC(C)(C)CC(=O)O)nc3ccccc32)cc1"
  inhibition at 0.1 µM [%]: 52
- MOLECULE: "COc1ccc(Cn2c(CC(C)(C)CC(=O)O)nc3ccccc32)cc1"
  inhibition at 0.1 µM [%]: 89
- MOLECULE: "CC(C)(CC(=O)O)Cc1nc2ccccc2n1Cc1ccc(F)cc1"
  inhibition at 0.1 µM [%]: 66

inhibition at 0.1 µM reported for this compound CC(C)(CC(=O)O)Cc1nc2cc(Cl)c(Cl)cc2n1Cc1ccc(Cl)cc1 : 14

inhibition at 0.1 µM reported for this compound CC(C)(CC(=O)O)Cc1nc2ccccc2n1Cc1ccc2ccccc2c1 : 85

inhibition at 0.1 µM reported for this compound O=C(O)CC1(Cc2nc3cc(F)ccc3n2Cc2ccc(Cl)cc2)CCCCC1 : 0

inhibition at 0.1 µM reported for this compound CSc1ccc(Cn2c(CC(C)(C)CC(=O)O)nc3cc(F)ccc32)cc1 : 100

inhibition at 0.1 µM reported for this compound O=C(O)CCCCSc1nc2cc(F)ccc2n1Cc1ccc(Cl)cc1 : 28

inhibition at 0.1 µM reported for this compound CC(C)(CC(=O)O)Cc1nc2cc(Cl)ccc2n1Cc1ccc(Br)cc1 : 98

Data credit: patent US5128359A
